The molecules below each have a reported pIC50 tested on UniProtKB P10415; the values come from various publications.
Remember the convention: pIC50 equals -log10 of concentration in molar.

{"MOL_SMILES": "CCCCc1c(-c2ccc(C(=O)NS(=O)(=O)c3ccc4ccccc4c3)cc2C(=O)N2CCc3ccccc3C2)c(CO)nn1-c1ccc(Oc2cccc(Cl)c2)cc1", "pIC50": 8.10}
{"MOL_SMILES": "CCCCN(CCCC)C(=O)c1nn(-c2ccc(C(=O)NS(=O)(=O)c3ccc4ccccc4c3)cc2C(=O)N2Cc3ccccc3C[C@H]2CN2CCN(C)CC2)c(C)c1Cl", "pIC50": 6.85}
{"MOL_SMILES": "Cc1cc2c(c(O)c1-c1c(C)cc3c(c1O)/C(=C/NCC(=O)O)C(=O)C(O)=C3C(C)C)/C(=C/NCC(=O)O)C(=O)C(O)=C2C(C)C", "pIC50": 6.24}
{"MOL_SMILES": "CCCCN(CCCC)C(=O)c1cn(CCN2CCOCC2)c(-c2ccc(C(=O)NS(=O)(=O)c3ccc4ccccc4c3)cc2C(=O)N2Cc3ccccc3C[C@H]2CO)n1", "pIC50": 6.92}
{"MOL_SMILES": "CCCCN(CCCC)C(=O)c1nn(-c2ccc(C(=O)NS(=O)(=O)c3ccc4ccccc4c3)cc2C(=O)N2Cc3ccccc3C[C@H]2CO)c(C)c1Cl", "pIC50": 7.46}

Turning now to a further record.
Need pIC50, item CC(C)c1ccc(Sc2ccc3c4c(cccc24)C(=O)C(C#N)=C3C#N)cc1
5.55

---

The molecules below each have a reported IC50 tested on Apoptosis regulator Bcl-2 (Homo sapiens, UniProt P10415); the values come from various publications.
Sequence (P10415 whole entry): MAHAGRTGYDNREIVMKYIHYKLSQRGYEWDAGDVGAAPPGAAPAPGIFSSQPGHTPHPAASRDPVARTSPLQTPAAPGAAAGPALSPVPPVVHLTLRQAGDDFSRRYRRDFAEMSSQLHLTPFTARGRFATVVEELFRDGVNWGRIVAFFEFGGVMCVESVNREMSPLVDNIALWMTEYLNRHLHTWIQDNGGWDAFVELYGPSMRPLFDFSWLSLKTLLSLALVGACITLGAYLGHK
Classify: met when IC50 is strictly less than 80 nM; not met when IC50 is not.

{"MOLECULE": "CCCCNC1=C(C#N)C(=O)c2cccc3c(SC4CCCCC4)ccc1c23", "CAT": "not met"}
{"MOLECULE": "CC1(C)CCC(CN2CCN(c3ccc(C(=O)NS(=O)(=O)c4ccc(NCCNC(=O)COc5cccc6c5C(=O)N(C5CCC(=O)NC5=O)C6=O)c([N+](=O)[O-])c4)c(Oc4cnc5[nH]ccc5c4)c3)CC2)=C(c2ccc(Cl)cc2)C1 (centres undefined)", "CAT": "met"}
{"MOLECULE": "O=[N+]([O-])c1cc(S(=O)(=O)Nc2ncnc3cc(N4CCN(Cc5ccccc5-c5ccc(Cl)cc5)CC4)ccc23)ccc1N[C@H](CCN1CCOCC1)CSc1ccccc1", "CAT": "met"}

--- query ---
Would you kindly verify if IC50 of CCCCNC1=C2C(=NC1=O)c1cccc3c(Sc4ccc(OC)cc4)ccc2c13 is strictly less than 80 nM?
not met

---

pIC50: −log10 of the molar value.
The compounds below each have a reported pIC50 tested on Apoptosis regulator Bcl-2 (Homo sapiens, UniProt P10415); the values come from various publications.
Binary classification by pIC50, with 7 as an inclusive lower bound for Fulfilled; all other cases are Not fulfilled.

Here are 5 compounds together with their reported answers.
{"MOL_SMILES": "CC(C)c1ccc(Oc2ccc3c4c(cccc24)C2=NC(=O)C(NCCCc4ccccc4)=C23)cc1", "CAT": "Fulfilled"}
{"MOL_SMILES": "CCCCN(CCCC)C(=O)c1nn(-c2ccc(C(=O)NS(=O)(=O)c3ccc4ccccc4c3)cc2C(=O)N2Cc3ccccc3C[C@H]2CN)c(C)c1Cl", "CAT": "Fulfilled"}
{"MOL_SMILES": "Cc1c(C#N)c(-c2cccc(N3CCN(c4ccc(NS(=O)(=O)c5ccc(N[C@H](CCN(C)C)CSc6ccccc6)c([N+](=O)[O-])c5)cc4)CC3)c2)c(-c2ccc(Cl)cc2)n1C", "CAT": "Fulfilled"}
{"MOL_SMILES": "CN(C)CCOc1cccc(-c2ccc(Cl)cc2)c1CN1CCN(c2ccc(C(=O)NS(=O)(=O)c3ccc(N[C@H](CCN4CCOCC4)CSc4ccccc4)c(S(=O)(=O)C(F)(F)F)c3)cc2)CC1", "CAT": "Fulfilled"}
{"MOL_SMILES": "CCCCc1c(-c2ccc(C(=O)NS(=O)(=O)c3ccc4ccccc4c3)cc2C(=O)N2CCc3ccccc3C2)c(C(=O)O)nn1-c1ccccc1", "CAT": "Not fulfilled"}

--- query ---
Textbook exercise: given the entry CCCn1c(C)c(C(=O)O)c(-c2cccc(N3CCN(c4ccc(NS(=O)(=O)c5ccc(N[C@H](CCN6CCC(O)CC6)CSc6ccccc6)c(S(=O)(=O)C(F)(F)F)c5)cc4)CC3)c2)c1-c1ccc(Cl)cc1 , state whether its pIC50 is greater than or equal to 7.
Fulfilled
